Biological target: Biotinylated NpF2164g6 (1038–1206), Avi-tagged holo-protein
Sequence (main, as listed by the source): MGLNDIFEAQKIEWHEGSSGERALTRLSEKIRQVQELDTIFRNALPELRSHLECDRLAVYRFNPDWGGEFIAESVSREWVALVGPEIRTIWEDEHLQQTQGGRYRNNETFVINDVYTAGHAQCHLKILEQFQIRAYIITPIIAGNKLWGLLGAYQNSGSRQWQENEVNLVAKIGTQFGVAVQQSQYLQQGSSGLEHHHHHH
Assay: ELISA; purified biotinylated NpF2164g6 immobilised, purified FLAG-tagged binders, red-light conditions (Pg state)
measurement.type: Kd

Q. Answer with the recorded Kd for the binder listed here: BNp-Red-1.2 (designed binder) MKLATIDQWLLKNAKEDAIAELKKAGITADAYFNWINNAWDVDYVNYRKNKILKAHAGSSGLEHHHHHH
A. > 100 µM

The reported numbers originate from paper PMC12856669.
